Form field: TGI (one value per entry).
Test system: NCI-H226 lung
PROCEDURE SUMMARY: NCI tumour cell line growth inhibition, 48 h

COMPOUND | TGI
CC1(C)CC(=O)C(C(=O)Nc2cccs2)=C(O)C1 | 86.8 µM
CCOc1ccc(NC(=O)C(=O)C(/C(=N/N)C(=O)OC)c2nc3ccc([N+](=O)[O-])cc3[nH]c2=O)cc1 (stereo unspecified) | > 100 µM
C/C(=C\c1csc(C)n1)[C@@H]1C[C@@H]2O[C@]2(C)CCC[C@H](C)[C@H](O)[C@@H](C)C(=O)C(C)(C)[C@@H](O)CC(=O)N1 | 0.000652 µM
NS(=O)(=O)c1c(O)c2ccccc2oc1=O | > 100 µM

Data point: FC(F)(F)c1cccc(CNC2CCN(CCc3ccccc3)CC2)c1 ; TGI = > 100 µM

Lab note: measured TGI of O=c1c(Oc2ccc(F)cc2F)cc2cnc(NC3CCOCC3)nc2n1C1CC1 was > 25 µM

* * *

Tested on: M14 melanoma
PROCEDURE SUMMARY: NCI tumour cell line growth inhibition, 48 h
EXPERIMENTAL READOUT: GI50

Query COc1ccc(Cn2c(Br)c3c(c2-c2cc(OC)c(OC)c(OC)c2)CCc2sc(N)nc2-3)cc1 yields GI50 of 1.36 µM

GI50 reading for CC(=O)O[C@H]1C[C@@H]2[C@@]3(C)CC[C@H]4C[C@@]4(C)[C@@H]3CC[C@@]2(C)C2=CCC3=C(COC3=O)[C@]21C : 22.6 µM

Entry under test: CCOC(=O)C#Cc1c(C(=O)OCC)nnn1[C@@H]1O[C@H](COC)[C@@H](OC)[C@H]1OC . Its GI50 was 3.27 µM

GI50 reported for this molecule O=C1NC(=O)C2C3C=CC(C12)C1C2C(=O)NC(=O)C2C31 (stereo not drawn) : > 973 µM

The recorded GI50 for entry O=C1NC(=NCc2cccs2)O/C1=C\c1ccc2ncccc2c1 equals 5 µM

Noted for COc1cc2c(Oc3ccc(-c4cnc(Nc5ccc(F)cc5)n(C)c4=O)cc3F)ccnc2cc1OCCCN1CCOCC1 : its GI50 reads 0.442 µM

Given item O=C1[C@H](Cc2ccc(O)cc2)N2C(=O)CCN(C(=O)NCc3ccccc3)[C@H]2CN1Cc1cccc2ccccc12 , the value recorded as its GI50 is 3.61 µM

// GI50 value for O=S(=O)(Nc1ccccc1)c1ccc(C2CC3(Cl)C(Cl)=C(Cl)C2(Cl)C3(Cl)Cl)cc1 (stereo not drawn) : 2.19 µM

Oc1c(Br)cc(Cl)cc1C(c1cc(Cl)cc(Br)c1O)C(Cl)(Cl)Cl has a reported GI50 of 3.74 µM

Entry COc1cc2c(cc1OCCN1CCN(CCN3C(=O)c4cccc5cccc(c45)C3=O)CC1)N=C[C@@H]1CCCN1C2=O , GI50 reported as 14.5 µM

* * *

System: CCRF-CEM leukemia
PROCEDURE SUMMARY: NCI tumour cell line growth inhibition, 48 h
EXPERIMENTAL READOUT: GI50

Observed GI50, CCRF-CEM leukemia, Cc1cccc(Oc2ccc(Nc3ncnc4ccc(NC(=O)CN(C)C)cc34)cc2Cl)c1 : 2540 nM

Reading of GI50 for COc1ccc(Cn2c(Br)c3c(c2-c2cc(OC)c(OC)c(OC)c2)CCc2sc(N)nc2-3)cc1 with CCRF-CEM leukemia: 890 nM

With CCRF-CEM leukemia as the test system, COc1cc(/C=C/C(=O)c2nc3cc(F)ccc3nc2C)cc(OC)c1OC showed GI50 of 1850 nM

Given the molecule O=C(O)CSc1cc(NS(=O)(=O)c2ccc(Br)cc2)c2ccccc2c1O and test system CCRF-CEM leukemia, the measured GI50 is 4370 nM

Hey, CCRF-CEM leukemia data for O=C1NC(=NCc2cccs2)O/C1=C\c1ccc2ncccc2c1 : GI50 came out at 4800 nM

Just for reference, PubChem BioAssay (NCI) is where these values come from.
